- SYSTEM TESTED: CFTR G551D mutant (Homo sapiens, UniProt P13569, G551D)
- Construct: expressed in transfected cells; host or cells: HEK293 cells, reverse transfection with plasmids
- Sequence (P13569 whole entry G551D): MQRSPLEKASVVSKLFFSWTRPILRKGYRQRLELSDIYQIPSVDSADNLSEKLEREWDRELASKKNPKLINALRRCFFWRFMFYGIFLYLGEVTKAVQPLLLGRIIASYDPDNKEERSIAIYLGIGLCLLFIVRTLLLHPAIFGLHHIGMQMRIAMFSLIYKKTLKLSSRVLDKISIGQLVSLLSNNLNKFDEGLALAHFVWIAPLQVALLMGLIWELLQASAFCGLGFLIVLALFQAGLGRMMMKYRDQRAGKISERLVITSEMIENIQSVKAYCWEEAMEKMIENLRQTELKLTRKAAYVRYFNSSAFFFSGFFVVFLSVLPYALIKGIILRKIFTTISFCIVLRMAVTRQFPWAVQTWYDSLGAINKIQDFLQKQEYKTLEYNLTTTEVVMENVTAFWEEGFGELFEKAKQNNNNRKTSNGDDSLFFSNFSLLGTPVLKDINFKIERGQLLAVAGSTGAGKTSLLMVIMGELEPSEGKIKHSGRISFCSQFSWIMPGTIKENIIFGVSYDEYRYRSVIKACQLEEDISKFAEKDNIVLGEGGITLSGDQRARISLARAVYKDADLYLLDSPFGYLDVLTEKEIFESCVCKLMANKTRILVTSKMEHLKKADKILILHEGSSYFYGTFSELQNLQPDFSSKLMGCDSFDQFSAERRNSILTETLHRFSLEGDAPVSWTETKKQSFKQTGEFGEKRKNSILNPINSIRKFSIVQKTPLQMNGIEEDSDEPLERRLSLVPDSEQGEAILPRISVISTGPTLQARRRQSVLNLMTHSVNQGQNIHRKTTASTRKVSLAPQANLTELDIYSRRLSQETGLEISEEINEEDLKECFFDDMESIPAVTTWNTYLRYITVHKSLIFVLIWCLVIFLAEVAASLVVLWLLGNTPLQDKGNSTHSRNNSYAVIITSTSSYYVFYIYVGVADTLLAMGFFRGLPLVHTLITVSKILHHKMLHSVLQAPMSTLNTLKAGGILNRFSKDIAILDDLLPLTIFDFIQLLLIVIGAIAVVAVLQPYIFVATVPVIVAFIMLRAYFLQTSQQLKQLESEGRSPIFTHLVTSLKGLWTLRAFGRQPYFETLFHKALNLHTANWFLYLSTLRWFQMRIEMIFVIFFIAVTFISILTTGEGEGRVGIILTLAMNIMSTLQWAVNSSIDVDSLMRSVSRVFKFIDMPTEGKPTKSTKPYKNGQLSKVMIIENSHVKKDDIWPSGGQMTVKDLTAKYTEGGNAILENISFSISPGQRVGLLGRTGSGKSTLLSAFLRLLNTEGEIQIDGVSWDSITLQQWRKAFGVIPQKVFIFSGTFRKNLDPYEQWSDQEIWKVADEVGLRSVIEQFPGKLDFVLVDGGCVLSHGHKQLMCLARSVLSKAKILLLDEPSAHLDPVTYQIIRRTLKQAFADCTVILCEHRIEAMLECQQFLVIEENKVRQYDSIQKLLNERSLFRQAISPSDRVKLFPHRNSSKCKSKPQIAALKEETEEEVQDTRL
- ASSAY SUMMARY: YFP-halide influx assay for the CFTR-G551D mutation (HEK293 cells)
- Assay type: cell-based
- PARTICULARS: forskolin 10.67 μM
ENDPOINT LABEL: % Activation (%)

>>> print(df.to_string())
                                    compound  measurement_unit  measured_number
 0  Nc1cc(S(=O)(=O)c2ccc(OC(F)(F)F)cc2)cnc1C(=O)N1CCC(F)(F)C1                 %             57.3
 1  C[C@H](O)CCNC(=O)c1ncc(S(=O)(=O)c2ccc(OC(F)(F)F)cc2)cc1N                 %             54.0
 2  Nc1cc(S(=O)(=O)N2CC(F)(F)C2)cnc1C(=O)NCC(O)C(F)(F)F (stereo not shown)                 %             23.8
 3  CCOCC1(CNC(=O)c2ncc(S(=O)(=O)c3ccc(OC(F)(F)F)cc3)cc2N)CCC1                 %             49.5
 4  CC(C)(C)C1CCN(S(=O)(=O)c2cnc(C(=O)NCC(O)C(F)(F)F)c(N)c2)CC1 (stereo not shown)                 %             76.4
 5  CC1(F)CN(C(=O)c2ncc(S(=O)(=O)c3ccc(C(F)(F)F)cc3)cc2N)C1                 %            104.0
 6  Nc1cc(S(=O)(=O)c2ccc(C(F)(F)F)cc2F)cnc1C(=O)NCC(O)COCC1CC1 (stereo not shown)                 %             79.2
 7  C[C@H](O)CNC(=O)c1nc(C2CC2)c(S(=O)(=O)c2ccc(F)cc2)cc1N                 %             69.5
 8  Nc1cc(S(=O)(=O)c2ccc(C(F)(F)F)cc2F)cnc1C(=O)N1CC(F)(F)C1                 %             71.5
 9  CN1CC(NC(=O)c2ncc(S(=O)(=O)c3ccc(OC(F)(F)F)cc3)cc2N)C1                 %              5.8
10  CC1CCCN(S(=O)(=O)c2cnc(C(=O)NCC(O)C(F)(F)F)c(N)c2)C1 (stereo not shown)                 %             51.3
11  CC(C)OCCNC(=O)c1ncc(S(=O)(=O)c2ccc(C(F)(F)F)cc2)cc1N                 %             58.4
12  COCCNC(=O)c1ncc(S(=O)(=O)c2ccc(C(F)(F)F)cc2)cc1N                 %             45.1
13  Nc1cc(S(=O)(=O)c2ccc(C(F)(F)F)cc2)cnc1C(=O)NCC(F)(F)F                 %             39.3
14  Nc1cc(S(=O)(=O)c2ccc(OC(F)(F)F)cc2)cnc1C(=O)N1CC(F)(F)C1                 %             70.2
15  Nc1cc(S(=O)(=O)c2ccc(C(F)(F)F)cc2)cnc1C(=O)NC[C@H]1CCOC1                 %             71.2
